# ASSAY PROCEDURE: Clearance in C57BL6 mouse at 2 umol/kg, iv measured up to 24 hrs by LC/MS/MS analysis
# Type: ADME, organism-based
# COND: in vivo, dose 2 µmol/kg
MEASURED QUANTITY: clearance

Query :: Fill blank: measured clearance of the compound Cc1cc(C#N)cnc1C(=O)Nc1ccc(F)c([C@]2(C)CO[C@@](C)(C(F)(F)F)C(N)=N2)c1 is ____.
Result :: 16 mL/min/kg

----------
# TARGET SYSTEM: Beta-secretase 2 (Homo sapiens)
# Sequence (Q9Y5Z0 whole entry, the tested form may be a part): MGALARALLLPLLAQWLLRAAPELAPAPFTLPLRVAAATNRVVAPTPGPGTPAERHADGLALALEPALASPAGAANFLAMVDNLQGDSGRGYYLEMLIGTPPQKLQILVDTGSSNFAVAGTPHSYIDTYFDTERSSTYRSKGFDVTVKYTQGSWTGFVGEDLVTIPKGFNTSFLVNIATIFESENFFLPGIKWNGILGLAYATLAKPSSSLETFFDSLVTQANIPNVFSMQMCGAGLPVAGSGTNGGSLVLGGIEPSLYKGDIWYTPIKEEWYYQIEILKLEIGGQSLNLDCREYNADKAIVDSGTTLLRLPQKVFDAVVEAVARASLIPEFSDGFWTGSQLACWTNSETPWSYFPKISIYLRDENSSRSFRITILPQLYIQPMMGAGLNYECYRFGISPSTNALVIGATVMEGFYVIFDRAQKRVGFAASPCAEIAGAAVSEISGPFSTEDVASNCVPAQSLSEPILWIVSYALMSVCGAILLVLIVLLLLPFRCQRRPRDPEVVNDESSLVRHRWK
# ASSAY PROCEDURE: Inhibition of human recombinant BACE2 catalytic domain using FRET substrate
Below is a list of entries, each paired with its recorded log10 IC50 value.
Response schema: value (number) is log10 of IC50 in units of nM.

SMILES ENTRY | log10 IC50
Cc1nc(C#N)cnc1C(=O)Nc1ccc(F)c([C@]2(C)CO[C@@](C)(C(F)(F)F)C(N)=N2)c1 | 2.11
C[C@@]1(c2cc(NC(=O)c3ncc(Cl)cc3Cl)ccc2F)CO[C@@](C)(C(F)(F)F)C(N)=N1 | 0.30
C[C@@]1(c2cc(NC(=O)c3ccc(C#N)cn3)ccc2F)CO[C@@](C)(C(F)(F)F)C(N)=N1 | 0.85
COc1cnc(C(=O)Nc2ccc(F)c([C@]3(C)CO[C@@](C)(C(F)(F)F)C(N)=N3)c2)c(C)c1 | 0.60

API: the following record is the query input.
Query :: Fill blank: measured log10 IC50 of the molecule C[C@@]1(c2cc(NC(=O)c3ncc(C#N)cc3Cl)ccc2F)CO[C@@](C)(C(F)(F)F)C(N)=N1 is ____.
Result :: 0.70

----------
# ASSAY PROCEDURE: Oral bioavailability in C57BL6 mouse at 6 umol/kg measured up to 24 hrs by LC/MS/MS analysis
# Format: ADME, organism-based
# COND: in vivo, at 6 µmol/kg
MEASURED QUANTITY: bioavailability (%)
Number in %, nothing else.

Query :: Fill blank: measured bioavailability of the compound Cc1cc(C#N)cnc1C(=O)Nc1ccc(F)c([C@]2(C)CO[C@@](C)(C(F)(F)F)C(N)=N2)c1 is ____.
Result :: 37

----------
# ASSAY PROCEDURE: Half life in C57BL6 mouse at 2 umol/kg, iv measured up to 24 hrs by LC/MS/MS analysis
# Assay type: ADME, organism-based
# COND: in vivo, dose 2 µmol/kg
MEASURED QUANTITY: half-life (h)
Number in h, nothing else.

Query :: Fill blank: measured half-life of the molecule Cc1cc(C#N)cnc1C(=O)Nc1ccc(F)c([C@]2(C)CO[C@@](C)(C(F)(F)F)C(N)=N2)c1 is ____.
Result :: 3.6

----------
# ASSAY PROCEDURE: Half life in Sprague-Dawley rat at 2 umol/kg, iv measured up to 48 hrs by LC/MS/MS analysis
# Format: ADME, organism-based
# COND: in vivo, dose 2 µmol/kg
MEASURED QUANTITY: half-life
Form field: result (number plus unit)

Query :: Fill blank: measured half-life of the compound Cc1cc(C#N)cnc1C(=O)Nc1ccc(F)c([C@]2(C)CO[C@@](C)(C(F)(F)F)C(N)=N2)c1 is ____.
Result :: 4.9 h

----------
# TARGET SYSTEM: Beta-secretase 1 (Cricetulus griseus, UniProt G3IAK4)
# Sequence (G3IAK4 whole entry): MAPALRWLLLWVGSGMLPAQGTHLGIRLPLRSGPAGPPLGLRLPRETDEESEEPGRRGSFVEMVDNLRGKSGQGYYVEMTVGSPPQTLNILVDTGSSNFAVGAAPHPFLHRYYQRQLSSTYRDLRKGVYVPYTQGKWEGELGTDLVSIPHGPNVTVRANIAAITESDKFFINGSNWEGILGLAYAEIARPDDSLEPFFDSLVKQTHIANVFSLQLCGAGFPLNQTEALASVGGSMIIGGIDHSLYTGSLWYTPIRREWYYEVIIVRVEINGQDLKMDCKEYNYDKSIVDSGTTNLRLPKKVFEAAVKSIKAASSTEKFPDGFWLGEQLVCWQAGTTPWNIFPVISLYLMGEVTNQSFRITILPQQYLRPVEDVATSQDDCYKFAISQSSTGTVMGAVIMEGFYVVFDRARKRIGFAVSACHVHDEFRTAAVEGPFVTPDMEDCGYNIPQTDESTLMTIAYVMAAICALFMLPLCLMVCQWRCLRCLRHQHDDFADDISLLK
# ASSAY PROCEDURE: Inhibition of wild type human APP751 expressed in CHO cells incubated for 24 hrs by immunoassay
# Assay type: cell-based
# COND: cho
Below is a list of entries, each paired with its recorded pIC50 value.
# log scale: pIC50 equals minus log10 of the concentration in mol/L

COMPOUND | MEASURED QUANTITY | VALUE MEASURED
C[C@@]1(c2cc(NC(=O)c3ncc(Cl)cc3Cl)ccc2F)CO[C@@](C)(C(F)(F)F)C(N)=N1 | pIC50 | 7.66
C[C@@]1(c2cc(NC(=O)c3ccc(C#N)cn3)ccc2F)CO[C@@](C)(C(F)(F)F)C(N)=N1 | pIC50 | 8.05
C[C@@]1(c2cc(NC(=O)c3ccc(Br)cn3)ccc2F)CO[C@@](C)(C(F)(F)F)C(N)=N1 (racemic) | pIC50 | 7.66

API: the following record is the query input.
Query :: Fill blank: measured pIC50 of the compound C[C@@]1(c2cc(NC(=O)c3ncc(C#N)cn3)ccc2F)CO[C@@](C)(C(F)(F)F)C(N)=N1 (racemic) is ____.
Result :: 7.62

Values from ChEMBL document CHEMBL5055623
